System: 817829-284-R-J1-PDC multi-cell spheroid viability
Experiment: Anticancer human tumor 817829-284-R-J1-PDC patient-derived colon adenocarcinoma cell line growth inhibition [PI3K]
Conditions: second compound 3.16 µM; first compound 1 µM; stronger effect = lower value
Give viability, T/C for every item shown.
Give bare numbers, in %.

{"columns": ["compound", "measure-unit", "viability, T/C"],
 "data": [
  ["CCN1CCN(Cc2ccc(Nc3ncc(F)c(-c4cc(F)c5nc(C)n(C(C)C)c5c4)n3)nc2)CC1 + Cc1nc(NC(=O)N2CCCC2C(N)=O)sc1-c1ccnc(C(C)(C)C(F)(F)F)c1", "%", 42.6],
  ["CNC(=O)c1ccc(N2C(=S)N(c3ccc(C#N)c(C(F)(F)F)c3)C(=O)C2(C)C)cc1F + Cc1nc(NC(=O)N2CCCC2C(N)=O)sc1-c1ccnc(C(C)(C)C(F)(F)F)c1", "%", 58.3],
  ["CC(Cn1ccc(-c2ccc(C#N)c(Cl)c2)n1)NC(=O)c1cc(C(C)O)[nH]n1 (stereo not given) + Cc1nc(NC(=O)N2CCCC2C(N)=O)sc1-c1ccnc(C(C)(C)C(F)(F)F)c1", "%", 89.7]
]}

Please state, for each entry, its recorded viability, T/C.
1. CC(Cn1ccc(-c2ccc(C#N)c(Cl)c2)n1)NC(=O)c1cc(C(C)O)[nH]n1 (stereo not given) + CC(Nc1ncnc2nc[nH]c12)c1cc2cccc(Cl)c2c(=O)n1-c1ccccc1
2. CC(C)NCC(C(=O)N1CCN(c2ncnc3c2C(C)CC3O)CC1)c1ccc(Cl)cc1 (stereo not given) + Cc1nc(NC(=O)N2CCCC2C(N)=O)sc1-c1ccnc(C(C)(C)C(F)(F)F)c1

[90.4, 19.2]

---

Test system: 817829-284-R-J1-PDC multi-cell spheroid viability
Assay: Anticancer human tumor 817829-284-R-J1-PDC cell line growth inhibition [PI3K]
Conditions: second compound 0.00316 µM; first compound 0.0316 µM; stronger effect = lower value
The label Y is reserved for viability, T/C strictly under 90%; N covers values equal to or above it.

{"columns": ["compound", "assigned-category"],
 "data": [
  ["Cn1ncc(Cl)c1-c1cc(C(=O)NC(CN)Cc2cccc(F)c2)sc1Cl (configuration not stated) + COc1c(OCCCN2CCOCC2)ccc2c3n(c(=NC(=O)c4cnc(N)nc4)nc12)CCN3", "N"]
]}

Just wondering, is viability, T/C of CC(Cn1ccc(-c2ccc(C#N)c(Cl)c2)n1)NC(=O)c1cc(C(C)O)[nH]n1 (configuration not stated) + COc1c(OCCCN2CCOCC2)ccc2c3n(c(=NC(=O)c4cnc(N)nc4)nc12)CCN3 below 90%?
Y

---

System: 817829-284-R-J1-PDC multi-cell spheroid viability
Experiment: Anticancer human tumor 817829-284-R-J1-PDC cell line growth inhibition [PI3K];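 also: spheroids exposed to agents for seven days before readout; percent of vehicle DMSO control viability which is 100%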
Settings: second compound 10 µM; first compound 1 µM; stronger effect = lower value
quantity-name: viability, T/C (%)
Numbers only, in %.

Observe how each entry below is paired with its result.
{"columns": ["compound", "viability, T/C / %"],
 "data": [
  ["CC(Cn1ccc(-c2ccc(C#N)c(Cl)c2)n1)NC(=O)c1cc(C(C)O)[nH]n1 (stereo unspecified) + Cc1nc(NC(=O)N2CCCC2C(N)=O)sc1-c1ccnc(C(C)(C)C(F)(F)F)c1", 40.9],
  ["Cn1nccc1Nc1nccc(-c2ccn(C(CO)c3ccc(Cl)c(F)c3)c(=O)c2)n1 (stereo unspecified) + Cc1nc(NC(=O)N2CCCC2C(N)=O)sc1-c1ccnc(C(C)(C)C(F)(F)F)c1", 94.2],
  ["CNC(=O)c1ccc(N2C(=S)N(c3ccc(C#N)c(C(F)(F)F)c3)C(=O)C2(C)C)cc1F + Cc1nc(NC(=O)N2CCCC2C(N)=O)sc1-c1ccnc(C(C)(C)C(F)(F)F)c1", 52.6],
  ["CCN1CCN(Cc2ccc(Nc3ncc(F)c(-c4cc(F)c5nc(C)n(C(C)C)c5c4)n3)nc2)CC1 + Cc1nc(NC(=O)N2CCCC2C(N)=O)sc1-c1ccnc(C(C)(C)C(F)(F)F)c1", 41],
  ["CCCS(=O)(=O)Nc1ccc(F)c(C(=O)c2c[nH]c3ncc(-c4ccc(Cl)cc4)cc23)c1F + CC(Nc1ncnc2nc[nH]c12)c1cc2cccc(Cl)c2c(=O)n1-c1ccccc1", 49.8]
]}

Kindly state the measured viability, T/C obtained for C=CC(=O)N1CCN(c2nc(=O)n(-c3c(C)ccnc3C(C)C)c3nc(-c4c(O)cccc4F)c(F)cc23)C(C)C1 (stereo unspecified) + Cc1nc(NC(=O)N2CCCC2C(N)=O)sc1-c1ccnc(C(C)(C)C(F)(F)F)c1 with 817829-284-R-J1-PDC multi-cell spheroid viability.
51.6

---

Test system: 817829-284-R-J1-PDC multi-cell spheroid viability
Assay: Anticancer human tumor 817829-284-R-J1-PDC cell line growth inhibition [PI3K];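 also: spheroids exposed to agents for seven days before readout; percent of vehicle DMSO control viability which is 100%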
Details: second compound 10 µM; first compound 0.00316 µM; stronger effect = lower value
The label Criterion met is reserved for viability, T/C strictly under 60%; Criterion not met covers values equal to or above it.

// known answers, use as guide
{"columns": ["compound", "measurement-target", "assigned-category"],
 "data": [
  ["CC(=O)c1c(C)c2cnc(Nc3ccc(N4CCNCC4)cn3)nc2n(C2CCCC2)c1=O + CC(Nc1ncnc2nc[nH]c12)c1cc2cccc(Cl)c2c(=O)n1-c1ccccc1", "817829-284-R-J1-PDC multi-cell spheroid viability", "Criterion met"],
  ["CC(C)n1nc(-c2ccc3oc(N)nc3c2)c2c(N)ncnc21 + CC(Nc1ncnc2nc[nH]c12)c1cc2cccc(Cl)c2c(=O)n1-c1ccccc1", "817829-284-R-J1-PDC multi-cell spheroid viability", "Criterion not met"],
  ["CC(=O)c1c(C)c2cnc(Nc3ccc(N4CCNCC4)cn3)nc2n(C2CCCC2)c1=O + Cc1nc(NC(=O)N2CCCC2C(N)=O)sc1-c1ccnc(C(C)(C)C(F)(F)F)c1", "817829-284-R-J1-PDC multi-cell spheroid viability", "Criterion met"]
]}

Just wondering, is viability, T/C of CCN1CCN(Cc2ccc(Nc3ncc(F)c(-c4cc(F)c5nc(C)n(C(C)C)c5c4)n3)nc2)CC1 + Cc1nc(NC(=O)N2CCCC2C(N)=O)sc1-c1ccnc(C(C)(C)C(F)(F)F)c1 below 60%?
Criterion not met

---

Tested on: 817829-284-R-J1-PDC multi-cell spheroid viability
Test: Anticancer human tumor 817829-284-R-J1-PDC cell line growth inhibition [PI3K]; active means viability on the fitted dose curve at most 10% of control; inactive means the rest;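 also: spheroids exposed to agents for seven days before readout; percent of vehicle DMSO control viability which is 100%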
Conditions: second compound 0.00316 µM; first compound 10 µM
Reply using exactly one outcome from active, inactive

{"columns": ["compound", "assigned-category"],
 "data": [
  ["C#Cc1c(F)ccc2cc(O)cc(-c3ncc4c(N5CC6CCC(C5)N6)nc(OCC56CCCN5CC(F)C6)nc4c3F)c12 (configuration not stated) + COc1c(OCCCN2CCOCC2)ccc2c3n(c(=NC(=O)c4cnc(N)nc4)nc12)CCN3", "inactive"],
  ["Cn1ncc(Cl)c1-c1cc(C(=O)NC(CN)Cc2cccc(F)c2)sc1Cl (configuration not stated) + COc1c(OCCCN2CCOCC2)ccc2c3n(c(=NC(=O)c4cnc(N)nc4)nc12)CCN3", "inactive"],
  ["CC1(C)CCC(Nc2ncc(C(F)(F)F)c(-c3c[nH]c4c(P(C)(C)=O)c(C#N)ccc34)n2)CN1 (configuration not stated) + CC(Nc1ccc2c(c1)OCCn1cc(N3C(=O)OCC3C(F)F)nc1-2)C(N)=O", "inactive"],
  ["C[C@@H](NC(=O)c1ncnc(N)c1Cl)c1ncc(C(=O)Nc2cc(C(F)(F)F)c(Cl)cn2)s1 + COc1c(OCCCN2CCOCC2)ccc2c3n(c(=NC(=O)c4cnc(N)nc4)nc12)CCN3", "inactive"],
  ["CNC(=O)c1ccc(N2C(=S)N(c3ccc(C#N)c(C(F)(F)F)c3)C(=O)C2(C)C)cc1F + CC(Nc1ccc2c(c1)OCCn1cc(N3C(=O)OCC3C(F)F)nc1-2)C(N)=O", "inactive"]
]}

Any idea what this test logged for Cn1ncc(Cl)c1-c1cc(C(=O)NC(CN)Cc2cccc(F)c2)sc1Cl (configuration not stated) + CC(Nc1ccc2c(c1)OCCn1cc(N3C(=O)OCC3C(F)F)nc1-2)C(N)=O ?
inactive

Any idea what this test logged for CCCS(=O)(=O)Nc1ccc(F)c(C(=O)c2c[nH]c3ncc(-c4ccc(Cl)cc4)cc23)c1F + CC(Nc1ccc2c(c1)OCCn1cc(N3C(=O)OCC3C(F)F)nc1-2)C(N)=O ?
active

---

Tested on: 817829-284-R-J1-PDC multi-cell spheroid viability
Experiment: Anticancer human tumor 817829-284-R-J1-PDC cell line growth inhibition [PI3K];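 also: spheroids exposed to agents for seven days before readout; percent of vehicle DMSO control viability which is 100%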
Details: second compound 0.1 µM; first compound 0.316 µM; stronger effect = lower value
Give viability, T/C for every item shown.

Observe how each entry below is paired with its result.
{"columns": ["molecule", "viability, T/C"],
 "data": [
  ["CNC(=O)c1ccc(N2C(=S)N(c3ccc(C#N)c(C(F)(F)F)c3)C(=O)C2(C)C)cc1F + CC(Nc1ccc2c(c1)OCCn1cc(N3C(=O)OCC3C(F)F)nc1-2)C(N)=O", "65.9%"],
  ["C=CC(=O)N1CCN(c2nc(=O)n(-c3c(C)ccnc3C(C)C)c3nc(-c4c(O)cccc4F)c(F)cc23)C(C)C1 (stereo not given) + CC(Nc1ccc2c(c1)OCCn1cc(N3C(=O)OCC3C(F)F)nc1-2)C(N)=O", "79.2%"],
  ["CC(Cn1ccc(-c2ccc(C#N)c(Cl)c2)n1)NC(=O)c1cc(C(C)O)[nH]n1 (stereo not given) + Cc1nc(NC(=O)N2CCCC2C(N)=O)sc1-c1ccnc(C(C)(C)C(F)(F)F)c1", "96.1%"],
  ["CCCS(=O)(=O)Nc1ccc(F)c(C(=O)c2c[nH]c3ncc(-c4ccc(Cl)cc4)cc23)c1F + CC(Nc1ncnc2nc[nH]c12)c1cc2cccc(Cl)c2c(=O)n1-c1ccccc1", "72.7%"]
]}

Let us move to another entry and its viability, T/C.
Sample Cn1ncc(Cl)c1-c1cc(C(=O)NC(CN)Cc2cccc(F)c2)sc1Cl (stereo not given) + COc1c(OCCCN2CCOCC2)ccc2c3n(c(=NC(=O)c4cnc(N)nc4)nc12)CCN3 — what was its viability, T/C?
21.2%
